Origin of measurements: PubChem BioAssay (NCI)

For each record, write down the corresponding growth.
- System: UO-31 renal
- Procedure Details: NCI-60 one-dose screen, 48 h (100 = growth as untreated, 0 = no growth, -100 = all killed)
- Condition Parameters: 10 µM
About 83,000 compounds went through this panel and 20% of them were active in at least one assay; those are over-represented in the sample as a whole.
All answers are understood in %, so give the number only.

Quick check: growth of O=C1C(Cl)=C(Cl)C(Cl)(Cl)C(Cl)C1(Cl)Cl (centres undefined) ?
84.5

Quick check: growth of "CN(C)c1ccc(/C=C/c2ccnc3ccccc23)cc1N" ?
45.5

Quick check: growth of "Cc1cc(Cl)ccc1NC(=O)/C(Cl)=C1/Sc2ccccc2NC1=O" ?
76.4

Quick check: growth of "O=C(CNS(=O)(=O)Cc1ccccc1)NNc1ccccc1" ?
35.7

Quick check: growth of "COc1cc(N)ccc1Nc1c2ccccc2nc2ccccc12" ?
50.6

Quick check: growth of "O=C1C=CC(=O)N1c1ccc(N2C(=O)C=CC2=O)cc1" ?
76.7

Quick check: growth of "O=C1c2ccccc2CCC1(Br)Br" ?
28

Quick check: growth of "N#CC(=C1C=CC(=NO)C=C1)c1ccccc1" ?
48.4

Quick check: growth of "Cn1ncc2cc3c(Nc4ccc(Cl)cc4)cccc3nc21" ?
62.5

Quick check: growth of "Cc1c(-c2ccccc2)[nH]c2ccccc12" ?
90.4

Quick check: growth of "O=c1[nH]cc(/C=N\Nc2ccccc2)c(=O)[nH]1" ?
26

Quick check: growth of "ClCCn1c(CCl)nc2ccc(Cl)cc21" ?
-82.6

Quick check: growth of "CCC(=O)Oc1ccc(/C=N/NC(N)=S)nc1" ?
29.7

Quick check: growth of "O=Nc1ccc(Nc2ccccc2)cc1" ?
53.9
